meta.source: ChEMBL document CHEMBL4229438

# assay_details: Half life in patient with solid tumor at 230 mg/m2, iv treated for 30 mins by HPLC-MS analysis
# Assay type: ADME, organism-based
# recorded_conditions: human, in vivo
parameter: half-life

get_value(item= COc1cccc2c1C(=O)c1c(O)c3c(c(O)c1C2=O)C[C@@](O)(/C(CO)=N/NC(=O)CCCCCN1C(=O)C=CC1=O)C[C@@H]3OC1C[C@H](N)[C@H](O)[C@H](C)O1 (stereo partly specified) , readout=half-life) returns 20.1 to 21.1 h

###

# Tested on: OVCAR-8
# assay_details: Cytotoxicity against human OVCAR8 cells
# Format: functional, cell-based
parameter: IC50 (nM)
Write the number in nM without appending the unit.

The measured IC50 associated with COc1cc(C(=O)N/N=C/c2cc3ccccc3s2)cc(OC)c1OC reads 9
